test: Solution stability over time in PBS by UV-Vis spectrophotometry; format: physicochemical; settings: 2 × 10^−4 M in PBS pH 7.4, 37 °C, 24 h vs T 0 h

molecule	decrease in the intensity of λmax
CC(C)[C@H](N=Cc1ccccc1[O-])C(=O)[O-].CC(C)[C@H](N=Cc1ccccc1[O-])C(=O)[O-].O.[O]=[V+2][O][V+2]=[O] [1b]	about 70%
CC(C)[C@H]1N=Cc2ccccc2[O][V](=[O])([O][V]2(=[O])[O]C(=O)[C@@H](C(C)C)N=Cc3ccccc3[O]2)[O]C1=O.O (stereo partly shown) [1a]	about 70%
CO.CO.COc1cccc2c1[O][V](=[O])([O][V]1(=[O])[O]C(=O)[C@@H](C(C)C)N=Cc3cccc(OC)c3[O]1)[O]C(=O)[C@@H](C(C)C)N=C2 (stereo partly shown) [2a, [{V^VO(R-vanval)(CH3OH)}2(μ2-O)]]	~30%
CO.CO.COc1cccc(C=N[C@H](C(=O)[O-])C(C)C)c1[O-].COc1cccc(C=N[C@H](C(=O)[O-])C(C)C)c1[O-].[O]=[V+2][O][V+2]=[O] [2b, [{V^VO(S-vanval)(CH3OH)}2(μ2-O)]]	~30%

* * *

experiment: Solution stability over time in PBS by UV-Vis spectrophotometry; assay type: physicochemical; conditions: 2 × 10^−4 M in PBS pH 7.4, 37 °C, 9 h vs T 0 h

compound	decrease in the intensity of λmax
CO.CO.COc1cccc2c1[O][V](=[O])([O][V]1(=[O])[O]C(=O)[C@@H](C(C)C)N=Cc3cccc(OC)c3[O]1)[O]C(=O)[C@@H](C(C)C)N=C2 (stereo partly shown) [2a, [{V^VO(R-vanval)(CH3OH)}2(μ2-O)]]	~30%
CO.CO.COc1cccc(C=N[C@H](C(=O)[O-])C(C)C)c1[O-].COc1cccc(C=N[C@H](C(=O)[O-])C(C)C)c1[O-].[O]=[V+2][O][V+2]=[O] [2b, [{V^VO(S-vanval)(CH3OH)}2(μ2-O)]]	~30%
CC(C)[C@H]1N=Cc2ccccc2[O][V](=[O])([O][V]2(=[O])[O]C(=O)[C@@H](C(C)C)N=Cc3ccccc3[O]2)[O]C1=O.O (stereo partly shown) [1a]	about 50%
CC(C)[C@H](N=Cc1ccccc1[O-])C(=O)[O-].CC(C)[C@H](N=Cc1ccccc1[O-])C(=O)[O-].O.[O]=[V+2][O][V+2]=[O] [1b]	about 50%

* * *

Experiment: Solution stability over time in PBS by UV-Vis spectrophotometry
Type: physicochemical
Conditions: 2 × 10^−4 M in PBS pH 7.4, 37 °C, 1 h vs T 0 h
Protocol: Electronic absorption spectra for the 2 × 10^−4 M solution of the four oxidovanadium(V) complexes in PBS at pH 7.4 were recorded outright on the prepared solutions (designated as T 0 h in the histograms), after the preparation at 1 h (T 1 h), 3 h (T 3 h), 6 h (T 6 h), 9 h (T 9 h), and 24 h (T 24 h), respectively. […] The data were expressed as the average ± SD of three independent measurements.

compound	decrease in the intensity of λmax
CC(C)[C@H](N=Cc1ccccc1[O-])C(=O)[O-].CC(C)[C@H](N=Cc1ccccc1[O-])C(=O)[O-].O.[O]=[V+2][O][V+2]=[O]	about 10%
CC(C)[C@H]1N=Cc2ccccc2[O][V](=[O])([O][V]2(=[O])[O]C(=O)[C@@H](C(C)C)N=Cc3ccccc3[O]2)[O]C1=O.O (stereo partly shown)	about 10%
CO.CO.COc1cccc2c1[O][V](=[O])([O][V]1(=[O])[O]C(=O)[C@@H](C(C)C)N=Cc3cccc(OC)c3[O]1)[O]C(=O)[C@@H](C(C)C)N=C2 (stereo partly shown) [2a, [{V^VO(R-vanval)(CH3OH)}2(μ2-O)]]	less than 10%
CO.CO.COc1cccc(C=N[C@H](C(=O)[O-])C(C)C)c1[O-].COc1cccc(C=N[C@H](C(=O)[O-])C(C)C)c1[O-].[O]=[V+2][O][V+2]=[O] [2b, [{V^VO(S-vanval)(CH3OH)}2(μ2-O)]]	less than 10%

* * *

assay: Solution stability over time in PBS by UV-Vis spectrophotometry; format: physicochemical; conditions: 2 × 10^−4 M in PBS pH 7.4, 37 °C, 6 h vs T 0 h
measured_endpoint: decrease in the intensity of λmax

compound	assay_value
CC(C)[C@H](N=Cc1ccccc1[O-])C(=O)[O-].CC(C)[C@H](N=Cc1ccccc1[O-])C(=O)[O-].O.[O]=[V+2][O][V+2]=[O] [1b]	about 40%
CO.CO.COc1cccc(C=N[C@H](C(=O)[O-])C(C)C)c1[O-].COc1cccc(C=N[C@H](C(=O)[O-])C(C)C)c1[O-].[O]=[V+2][O][V+2]=[O] [2b, [{V^VO(S-vanval)(CH3OH)}2(μ2-O)]]	~20%
CC(C)[C@H]1N=Cc2ccccc2[O][V](=[O])([O][V]2(=[O])[O]C(=O)[C@@H](C(C)C)N=Cc3ccccc3[O]2)[O]C1=O.O (stereo partly shown) [1a]	about 40%
CO.CO.COc1cccc2c1[O][V](=[O])([O][V]1(=[O])[O]C(=O)[C@@H](C(C)C)N=Cc3cccc(OC)c3[O]1)[O]C(=O)[C@@H](C(C)C)N=C2 (stereo partly shown) [2a, [{V^VO(R-vanval)(CH3OH)}2(μ2-O)]]	~20%

* * *

Give collision quenching constant Kq (Kq = Ksv/τ0) for every item shown.
Biological target: bovine serum albumin (BSA) (Bos taurus, UniProt P02769)
Construct: α-Amylase from porcine pancreas, bovine serum albumin (BSA); purchased SIGMA-Aldrich (Merck KGaA, Darmstadt, Germany)
Sequence (P02769 25-607): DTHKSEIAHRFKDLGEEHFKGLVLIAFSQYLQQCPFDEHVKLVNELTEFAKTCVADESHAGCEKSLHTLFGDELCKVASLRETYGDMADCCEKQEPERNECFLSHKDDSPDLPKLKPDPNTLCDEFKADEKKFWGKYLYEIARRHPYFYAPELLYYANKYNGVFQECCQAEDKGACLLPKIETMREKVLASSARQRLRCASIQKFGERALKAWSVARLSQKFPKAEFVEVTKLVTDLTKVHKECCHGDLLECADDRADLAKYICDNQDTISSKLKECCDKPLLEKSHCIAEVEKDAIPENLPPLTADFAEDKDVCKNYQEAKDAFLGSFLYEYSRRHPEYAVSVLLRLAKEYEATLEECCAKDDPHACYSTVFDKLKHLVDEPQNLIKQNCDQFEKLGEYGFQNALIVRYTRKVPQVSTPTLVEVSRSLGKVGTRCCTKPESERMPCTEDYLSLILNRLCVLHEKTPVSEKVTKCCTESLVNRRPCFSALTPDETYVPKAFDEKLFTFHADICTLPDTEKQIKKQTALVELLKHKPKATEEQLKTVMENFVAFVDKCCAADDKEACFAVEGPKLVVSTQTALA
Test: Fluorescence quenching of serum albumin (Stern–Volmer)
Format: binding
Conditions: τ0 = 10^−8 s
Method: The capacity of the oxidovanadium(V) compounds to bind to bovine serum albumin (BSA) was monitored by fluorescence quenching assay. […] The samples were excited at 295 nm and the emission spectra of all BSA solutions were recorded in the 300 ÷ 450 nm range using a JASCO FP-750 spectrofluorometer. The final spectrum was the average of three recordings measured at a scanning speed of 250 nm/minute, with an excitation and emission bandwidth of 5 nm. […]
Entry rule: numbers only, all in M⁻¹ s⁻¹.

IN: Given CO.CO.COc1cccc2c1[O][V](=[O])([O][V]1(=[O])[O]C(=O)[C@@H](C(C)C)N=Cc3cccc(OC)c3[O]1)[O]C(=O)[C@@H](C(C)C)N=C2 (stereo partly shown) [2a, [{V^VO(R-vanval)(CH3OH)}2(μ2-O)]] , state its recorded collision quenching constant Kq (Kq = Ksv/τ0).
OUT: 1.718e+13

IN: # iterate: CC(C)[C@H](N=Cc1ccccc1[O-])C(=O)[O-].CC(C)[C@H](N=Cc1ccccc1[O-])C(=O)[O-].O.[O]=[V+2][O][V+2]=[O] [1b]
OUT: 6.01e+12

IN: # iterate: CO.CO.COc1cccc(C=N[C@H](C(=O)[O-])C(C)C)c1[O-].COc1cccc(C=N[C@H](C(=O)[O-])C(C)C)c1[O-].[O]=[V+2][O][V+2]=[O] [2b, [{V^VO(S-vanval)(CH3OH)}2(μ2-O)]]
OUT: 2.489e+13

IN: # iterate: CC(C)[C@H]1N=Cc2ccccc2[O][V](=[O])([O][V]2(=[O])[O]C(=O)[C@@H](C(C)C)N=Cc3ccccc3[O]2)[O]C1=O.O (stereo partly shown) [1a]
OUT: 8.07e+12

* * *

test: Solution stability over time in PBS by UV-Vis spectrophotometry; format: physicochemical; details: 2 × 10^−4 M in PBS pH 7.4, 37 °C, 3 h vs T 0 h

molecule	decrease in the intensity of λmax
CO.CO.COc1cccc2c1[O][V](=[O])([O][V]1(=[O])[O]C(=O)[C@@H](C(C)C)N=Cc3cccc(OC)c3[O]1)[O]C(=O)[C@@H](C(C)C)N=C2 (stereo partly shown) [2a, [{V^VO(R-vanval)(CH3OH)}2(μ2-O)]]	less than 20%
CO.CO.COc1cccc(C=N[C@H](C(=O)[O-])C(C)C)c1[O-].COc1cccc(C=N[C@H](C(=O)[O-])C(C)C)c1[O-].[O]=[V+2][O][V+2]=[O] [2b, [{V^VO(S-vanval)(CH3OH)}2(μ2-O)]]	less than 20%
CC(C)[C@H]1N=Cc2ccccc2[O][V](=[O])([O][V]2(=[O])[O]C(=O)[C@@H](C(C)C)N=Cc3ccccc3[O]2)[O]C1=O.O (stereo partly shown)	about 25%
CC(C)[C@H](N=Cc1ccccc1[O-])C(=O)[O-].CC(C)[C@H](N=Cc1ccccc1[O-])C(=O)[O-].O.[O]=[V+2][O][V+2]=[O]	about 25%

* * *

target: bovine serum albumin (BSA) (Bos taurus, UniProt P02769); construct: α-Amylase from porcine pancreas, bovine serum albumin (BSA); purchased SIGMA-Aldrich (Merck KGaA, Darmstadt, Germany); test: Fluorescence quenching of serum albumin (Stern–Volmer); type: binding; details: highest tested concentration (2.5 × 10^−5 M), 2 × 10^−6 M BSA, PBS pH 7.4, vs free BSA and BSA with DMSO

molecule	test_system	decrease of BSA fluorescence intensity
CC(C)[C@H](N=Cc1ccccc1[O-])C(=O)[O-].CC(C)[C@H](N=Cc1ccccc1[O-])C(=O)[O-].O.[O]=[V+2][O][V+2]=[O] [1b]	bovine serum albumin (BSA) (Bos taurus, UniProt P02769)	about 60%
CC(C)[C@H]1N=Cc2ccccc2[O][V](=[O])([O][V]2(=[O])[O]C(=O)[C@@H](C(C)C)N=Cc3ccccc3[O]2)[O]C1=O.O (some centres unmarked) [1a]	bovine serum albumin (BSA) (Bos taurus, UniProt P02769)	about 60%
CO.CO.COc1cccc(C=N[C@H](C(=O)[O-])C(C)C)c1[O-].COc1cccc(C=N[C@H](C(=O)[O-])C(C)C)c1[O-].[O]=[V+2][O][V+2]=[O] [2b, [{V^VO(S-vanval)(CH3OH)}2(μ2-O)]]	bovine serum albumin (BSA) (Bos taurus, UniProt P02769)	~80%
CO.CO.COc1cccc2c1[O][V](=[O])([O][V]1(=[O])[O]C(=O)[C@@H](C(C)C)N=Cc3cccc(OC)c3[O]1)[O]C(=O)[C@@H](C(C)C)N=C2 (some centres unmarked) [2a, [{V^VO(R-vanval)(CH3OH)}2(μ2-O)]]	bovine serum albumin (BSA) (Bos taurus, UniProt P02769)	~80%

FYI, the data here is from paper PMC8156053.
